study_target: UniProt:Q9UBN7
test_details: Inhibition of human full-length recombinant HDAC6 expressed in baculovirus infected Sf9 insect cells using Boc-Lys (Ac)-AMC as substrate preincubated for 10 mins followed by substrate addition and measured after 30 mins by fluorescence assay
Property: pKi; scope: individual molecules
The quantity pKi is defined as the negative base-10 logarithm of the molar concentration.

query: Name the reported pKi value associated with the molecule COc1ccccc1CCn1c(=O)c2ccccc2n(Cc2ccc(C(=O)NO)cc2)c1=O
result: 8.68

query: Also, O=C(NO)c1ccc(Cn2c(=O)n(CCc3ccccc3)c(=O)c3cccnc32)cc1 please.
result: 8.41

* * *

System: Lewis lung carcinoma cell line
test_details: Cytotoxicity against mouse LL/2 cells after 72 hrs by MTT assay
Format: functional, cell-based
The following compounds are listed with their measured IC50 values.
Number in µM, nothing else.

| entry_smiles | result_unit | observed_value |
| --- | --- | --- |
| O=C(NO)c1ccc(Cn2c(=O)n(CCc3ccccc3)c(=O)c3ccccc32)cc1 | µM | 7.87 |

# evaluate next
query: IC50 for CC(=O)O[C@H]1C(=O)[C@@]2(C)[C@H]([C@H](OC(=O)c3ccccc3)[C@]3(O)C[C@H](OC(=O)[C@H](O)[C@@H](NC(=O)c4ccccc4)c4ccccc4)C(C)=C1C3(C)C)[C@]1(OC(C)=O)CO[C@@H]1C[C@@H]2O ?
result: 0.01

* * *

The reader will find reported IC50 values listed item by item below.
study_target: Histone deacetylase 11 (Homo sapiens)
Sequence (Q96DB2 whole entry): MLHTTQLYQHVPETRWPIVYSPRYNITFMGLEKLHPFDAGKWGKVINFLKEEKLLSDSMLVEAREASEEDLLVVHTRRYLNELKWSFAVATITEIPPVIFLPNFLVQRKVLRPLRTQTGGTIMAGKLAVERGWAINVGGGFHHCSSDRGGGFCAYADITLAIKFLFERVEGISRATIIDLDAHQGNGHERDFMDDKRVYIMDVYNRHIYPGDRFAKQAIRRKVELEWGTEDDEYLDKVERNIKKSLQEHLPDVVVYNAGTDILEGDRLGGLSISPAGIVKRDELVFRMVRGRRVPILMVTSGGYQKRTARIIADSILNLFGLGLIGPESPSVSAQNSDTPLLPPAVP
test_details: Inhibition of human full-length recombinant HDAC11 expressed in baculovirus infected Sf9 insect cells using fluorogenic peptide RHKKAc as substrate after 2 hrs
Return type: number; implicit unit µM.

| entry_smiles | IC50 [µM] |
| --- | --- |
| COc1ccc(CCn2c(=O)c3ccccc3n(Cc3ccc(C(=O)NO)cc3)c2=O)cc1 | 13.8 |
| O=C(NO)c1ccc(Cn2c(=O)n(CCc3ccccc3)c(=O)c3ccccc32)s1 | 19.8 |

query: Value wanted: IC50 (Histone deacetylase 11 (Homo sapiens)) of entry O=C(NO)c1ccc(Cn2c(=O)n(CCc3ccc(O)cc3)c(=O)c3ccccc32)cc1
result: 11.3

* * *

study_target: Histone deacetylase 1 (Homo sapiens, UniProt Q13547)
Sequence (Q13547 whole entry): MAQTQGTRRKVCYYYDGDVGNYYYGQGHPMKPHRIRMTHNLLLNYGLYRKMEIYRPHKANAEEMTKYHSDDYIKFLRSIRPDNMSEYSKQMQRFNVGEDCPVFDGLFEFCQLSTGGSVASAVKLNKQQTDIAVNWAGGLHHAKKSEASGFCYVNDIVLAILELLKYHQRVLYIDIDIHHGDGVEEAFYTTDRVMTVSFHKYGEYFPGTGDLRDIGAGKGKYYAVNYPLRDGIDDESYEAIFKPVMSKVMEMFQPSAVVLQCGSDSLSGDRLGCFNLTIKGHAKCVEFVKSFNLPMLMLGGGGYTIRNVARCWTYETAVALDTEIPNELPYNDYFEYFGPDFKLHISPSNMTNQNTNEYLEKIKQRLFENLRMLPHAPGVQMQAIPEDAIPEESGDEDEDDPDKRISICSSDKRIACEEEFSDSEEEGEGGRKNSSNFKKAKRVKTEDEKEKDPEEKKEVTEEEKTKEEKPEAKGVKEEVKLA
test_details: Inhibition of human full-length recombinant HDAC1 expressed in baculovirus infected Sf9 insect cells using fluorogenic peptide RHKKAc as substrate after 2 hrs
# pIC50 per entry
In plain terms, pIC50 is the concentration in mol/L turned into minus its base-10 logarithm.

query: Entry under review: O=C(NO)c1ccc(Cn2c(=O)n(CCc3cccc(C(F)(F)F)c3)c(=O)c3ccccc32)cc1 . Reported pIC50?
result: 4.90

query: Please answer likewise for COc1ccc(CCn2c(=O)c3ccccc3n(Cc3ccc(C(=O)NO)cc3)c2=O)cc1
result: 5.13

query: Okay, and O=C(NO)c1ccc(Cn2c(=O)n(CCc3ccc(O)cc3)c(=O)c3ccccc32)cc1 ?
result: 5.04

query: And the next one, O=C(NO)c1ccc(Cn2c(=O)n(CCc3ccccc3)c(=O)c3ccccc32)s1 ?
result: 4.64

* * *

study_target: Protein deacetylase HDAC6 (Homo sapiens, UniProt Q9UBN7)
Sequence (Q9UBN7 whole entry): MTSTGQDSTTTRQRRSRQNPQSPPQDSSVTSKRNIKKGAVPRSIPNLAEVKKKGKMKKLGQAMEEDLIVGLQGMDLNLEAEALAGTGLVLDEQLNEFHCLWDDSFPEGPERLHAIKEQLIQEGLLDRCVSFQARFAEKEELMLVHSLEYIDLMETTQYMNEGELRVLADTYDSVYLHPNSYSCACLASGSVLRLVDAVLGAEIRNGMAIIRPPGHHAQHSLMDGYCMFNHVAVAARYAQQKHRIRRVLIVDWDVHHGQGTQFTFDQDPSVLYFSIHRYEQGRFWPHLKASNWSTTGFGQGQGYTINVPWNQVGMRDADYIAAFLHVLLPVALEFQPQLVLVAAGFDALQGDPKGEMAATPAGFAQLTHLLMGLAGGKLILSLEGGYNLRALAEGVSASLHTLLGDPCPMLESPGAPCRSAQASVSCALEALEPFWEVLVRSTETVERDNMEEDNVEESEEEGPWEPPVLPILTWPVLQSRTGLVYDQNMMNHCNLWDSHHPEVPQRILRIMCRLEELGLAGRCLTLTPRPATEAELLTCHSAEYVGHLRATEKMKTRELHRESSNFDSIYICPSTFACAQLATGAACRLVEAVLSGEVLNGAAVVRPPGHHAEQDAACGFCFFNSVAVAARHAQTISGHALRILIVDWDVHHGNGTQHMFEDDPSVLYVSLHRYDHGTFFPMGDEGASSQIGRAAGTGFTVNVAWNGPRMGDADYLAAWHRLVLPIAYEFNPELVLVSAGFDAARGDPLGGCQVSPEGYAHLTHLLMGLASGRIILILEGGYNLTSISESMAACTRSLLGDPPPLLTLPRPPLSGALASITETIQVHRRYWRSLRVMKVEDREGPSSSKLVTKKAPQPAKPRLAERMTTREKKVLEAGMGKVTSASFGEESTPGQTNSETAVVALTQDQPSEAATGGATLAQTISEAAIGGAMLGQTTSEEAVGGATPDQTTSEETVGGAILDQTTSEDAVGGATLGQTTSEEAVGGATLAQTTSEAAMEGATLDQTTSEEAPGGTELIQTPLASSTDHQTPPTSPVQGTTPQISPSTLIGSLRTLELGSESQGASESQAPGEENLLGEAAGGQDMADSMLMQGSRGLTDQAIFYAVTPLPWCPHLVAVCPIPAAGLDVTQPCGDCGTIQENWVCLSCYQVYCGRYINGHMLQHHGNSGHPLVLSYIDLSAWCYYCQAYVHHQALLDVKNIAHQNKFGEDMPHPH
test_details: Inhibition of human full-length recombinant HDAC6 expressed in baculovirus infected Sf9 insect cells using fluorogenic peptide RHKKAc as substrate after 2 hrs
measured_property: pIC50
To interpret pIC50, take it as minus log10 of a concentration measured in moles per litre.

Examples with their reported pIC50 follow.
| entry_smiles | pIC50 |
| --- | --- |
| COc1ccc(CCn2c(=O)c3ccccc3n(Cc3ccc(C(=O)NO)cc3)c2=O)cc1 | 7.70 |
| O=C(NO)c1ccc(Cn2c(=O)n(CCc3ccccc3)c(=O)c3ccc(O)cc32)cc1 | 7.49 |
| O=C(NO)c1ccc(Cn2c(=O)n(CCc3ccccc3)c(=O)c3ccccc32)s1 | 7.70 |
| COc1ccccc1CCn1c(=O)c2ccccc2n(Cc2ccc(C(=O)NO)cc2)c1=O | 7.92 |
| O=C(NO)c1ccc(Cn2c(=O)n(CCc3cccc(C(F)(F)F)c3)c(=O)c3ccccc32)cc1 | 7.62 |
| O=C(NO)c1ccc(Cn2c(=O)n(CCc3ccccc3)c(=O)c3cccnc32)cc1 | 7.54 |
| O=C(NO)c1ccc(Cn2c(=O)n(CCc3ccc(O)cc3)c(=O)c3ccccc32)cc1 | 8.30 |
| O=C(NO)c1ccc(Cn2c(=O)n(CCc3ccccc3)c(=O)c3ccc(Cl)cc32)cc1 | 7.66 |

Turning now to a further record.
query: Find the measured pIC50: item O=C(NO)c1cccc(Cn2c(=O)n(CCc3ccccc3)c(=O)c3ccccc32)c1 , target or system Protein deacetylase HDAC6 (Homo sapiens, UniProt Q9UBN7).
result: 5.33
